# measured-on: HSP60/10 (Homo sapiens)
# Construct: octa-Histidine (His8) tag, TEV-cleavable (N, cleaved yes); made in house; host or cells: HSP60 in Rosetta 2 (DE3) E. coli; HSP10 in Rosetta 2 (DE3) pLysS
# Sequence (P10809 27-573): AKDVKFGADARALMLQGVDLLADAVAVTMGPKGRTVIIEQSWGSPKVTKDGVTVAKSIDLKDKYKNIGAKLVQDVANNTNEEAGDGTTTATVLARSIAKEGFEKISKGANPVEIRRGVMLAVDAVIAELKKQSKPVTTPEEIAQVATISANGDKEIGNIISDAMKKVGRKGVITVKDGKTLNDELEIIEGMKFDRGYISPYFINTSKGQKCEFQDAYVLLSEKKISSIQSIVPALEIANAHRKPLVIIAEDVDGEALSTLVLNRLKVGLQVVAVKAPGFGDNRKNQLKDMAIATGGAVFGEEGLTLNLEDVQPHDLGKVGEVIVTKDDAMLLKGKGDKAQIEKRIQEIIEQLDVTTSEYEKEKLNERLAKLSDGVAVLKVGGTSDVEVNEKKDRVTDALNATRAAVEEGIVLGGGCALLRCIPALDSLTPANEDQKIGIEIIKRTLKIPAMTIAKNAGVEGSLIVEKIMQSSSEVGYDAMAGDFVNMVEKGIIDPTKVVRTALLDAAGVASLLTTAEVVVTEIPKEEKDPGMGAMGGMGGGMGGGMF
# assay-protocol: HSP60/10-mediated dMDH refolding assay
# Type: biochemical
# setup-conditions: Table 3; 37° C., 1 mM ATP; read-out: Biochemical Assay IC50 HSP60/10-dMDH Refolding
reported-property: IC50

[[record]]
molecule = "COc1ccc(Cl)cc1C(=O)Nc1ccc(CC#N)cc1"
reported_property = "IC50"
endpoint_result = "> 100 µM"

[[record]]
molecule = "COc1ccc(Cl)cc1C(=O)Nc1ccc(Sc2nc3ccccc3s2)c(Cl)c1"
reported_property = "IC50"
endpoint_result = "> 100 µM"

[[record]]
molecule = "COc1ccc(Cl)cc1C(=O)Nc1ccc(Cc2ccccc2)cc1"
reported_property = "IC50"
endpoint_result = "> 100 µM"

[[record]]
molecule = "COc1ccc(Cl)cc1C(=O)Nc1ccc(OCc2ccccc2)cc1"
reported_property = "IC50"
endpoint_result = "> 100 µM"

[[record]]
molecule = "O=C(Nc1ccc(Oc2ccccc2)cc1)c1cc(Cl)ccc1O"
reported_property = "IC50"
endpoint_result = "> 100 µM"

[[record]]
molecule = "O=C(Nc1ccc(O)cc1)c1cc(Cl)ccc1O"
reported_property = "IC50"
endpoint_result = "> 100 µM"

[[record]]
molecule = "O=C(Nc1ccc(Oc2ccc(Cl)cc2)c(Cl)c1)c1cc(Cl)ccc1O"
reported_property = "IC50"
endpoint_result = "9.5 µM"

[[record]]
molecule = "COc1ccc(Cl)cc1C(=O)Nc1ccc(Oc2ccccc2)c(Cl)c1"
reported_property = "IC50"
endpoint_result = "> 100 µM"

[[record]]
molecule = "O=C(Nc1ccc(OCc2ccccc2)cc1)c1cc(Cl)ccc1O"
reported_property = "IC50"
endpoint_result = "> 100 µM"

[[record]]
molecule = "O=C(Nc1ccc(CCc2ccccc2)cc1)c1cc(Cl)ccc1O"
reported_property = "IC50"
endpoint_result = "81 µM"

[[record]]
molecule = "COc1ccc(Cl)cc1C(=O)Nc1ccccc1 [Compound 116, 5-chloro-2-methoxy-N-phenylbenzamide]"
reported_property = "IC50"
endpoint_result = "> 100 µM"

[[record]]
molecule = "COc1ccc(Cl)cc1C(=O)Nc1ccc(Oc2ccccc2)cc1"
reported_property = "IC50"
endpoint_result = "> 100 µM"

[[record]]
molecule = "N#CCc1ccc(NC(=O)c2cc(Cl)ccc2O)cc1"
reported_property = "IC50"
endpoint_result = "> 100 µM"

[[record]]
molecule = "COc1ccc(Cl)cc1C(=O)Nc1ccc(Oc2ccc(Cl)cc2)c(Cl)c1"
reported_property = "IC50"
endpoint_result = "> 100 µM"

[[record]]
molecule = "O=C(Nc1ccccc1)c1cc(Cl)ccc1O [Compound 117, 5-chloro-2-hydroxy-N-phenylbenzamide]"
reported_property = "IC50"
endpoint_result = "> 100 µM"

[[record]]
molecule = "O=C(Nc1ccc([N+](=O)[O-])cc1Cl)c1cc(Cl)ccc1O [Niclosamide, reference compound]"
reported_property = "IC50"
endpoint_result = "> 100 µM"

[[record]]
molecule = "O=C(Nc1ccc(Cc2ccccc2)cc1)c1cc(Cl)ccc1O"
reported_property = "IC50"
endpoint_result = "> 100 µM"

[[record]]
molecule = "COc1ccc(Cl)cc1C(=O)Nc1ccc(C(C#N)c2ccccc2)cc1 (stereo not drawn)"
reported_property = "IC50"
endpoint_result = "> 100 µM"

[[record]]
molecule = "COc1ccc(Cl)cc1C(=O)Nc1ccc(C(=O)O)cc1"
reported_property = "IC50"
endpoint_result = "> 100 µM"

[[record]]
molecule = "COc1ccc(Cl)cc1C(=O)Nc1ccc(Sc2nc3ccccc3s2)cc1"
reported_property = "IC50"
endpoint_result = "> 100 µM"

[[record]]
molecule = "COc1ccc(NC(=O)c2cc(Cl)ccc2O)cc1"
reported_property = "IC50"
endpoint_result = "> 100 µM"

[[record]]
molecule = "COc1ccc(Cl)cc1C(=O)Nc1cc(Cl)c(C(C#N)c2ccc(Cl)cc2)cc1C (stereo not drawn)"
reported_property = "IC50"
endpoint_result = "> 100 µM"

[[record]]
molecule = "COC(=O)c1ccc(NC(=O)c2cc(Cl)ccc2O)cc1"
reported_property = "IC50"
endpoint_result = "> 100 µM"

[[record]]
molecule = "CC(=O)Nc1ccc(NC(=O)c2cc(Cl)ccc2O)cc1"
reported_property = "IC50"
endpoint_result = "> 100 µM"

[[record]]
molecule = "N#CC(c1ccccc1)c1ccc(NC(=O)c2cc(Cl)ccc2O)cc1 (stereo not drawn)"
reported_property = "IC50"
endpoint_result = "75 µM"

[[record]]
molecule = "COC(=O)c1ccc(NC(=O)c2cc(Cl)ccc2OC)cc1"
reported_property = "IC50"
endpoint_result = "> 100 µM"

[[record]]
molecule = "O=C(Nc1ccc(Sc2nc3ccccc3s2)cc1)c1cc(Cl)ccc1O"
reported_property = "IC50"
endpoint_result = "59 µM"

[[record]]
molecule = "COc1ccc(Cl)cc1C(=O)Nc1ccc(Oc2ccc(Cl)cc2)cc1"
reported_property = "IC50"
endpoint_result = "> 100 µM"

[[record]]
molecule = "O=C(Nc1ccc(Oc2ccccc2)c(Cl)c1)c1cc(Cl)ccc1O"
reported_property = "IC50"
endpoint_result = "22 µM"

[[record]]
molecule = "COc1ccc(Cl)cc1C(=O)Nc1ccc(O)cc1"
reported_property = "IC50"
endpoint_result = "> 100 µM"

[[record]]
molecule = "O=C(Nc1ccc(Oc2ccc(Cl)cc2)cc1)c1cc(Cl)ccc1O"
reported_property = "IC50"
endpoint_result = "45 µM"

[[record]]
molecule = "COc1ccc(NC(=O)c2cc(Cl)ccc2OC)cc1"
reported_property = "IC50"
endpoint_result = "> 100 µM"

[[record]]
molecule = "COc1ccc(Cl)cc1C(=O)Nc1ccc(CCc2ccccc2)cc1"
reported_property = "IC50"
endpoint_result = "> 100 µM"

[[record]]
molecule = "O=C(O)c1ccc(NC(=O)c2cc(Cl)ccc2O)cc1"
reported_property = "IC50"
endpoint_result = "> 100 µM"

[[record]]
molecule = "O=C(Nc1ccc(Sc2nc3ccccc3s2)c(Cl)c1)c1cc(Cl)ccc1O"
reported_property = "IC50"
endpoint_result = "39 µM"

[[record]]
molecule = "COc1ccc(Cl)cc1C(=O)Nc1ccc(NC(C)=O)cc1"
reported_property = "IC50"
endpoint_result = "> 100 µM"


====

# assay-protocol: HEK 293 kidney cell viability / cytotoxicity assay (Alamar Blue)
# Assay type: cell-based
# setup-conditions: human, HEK 293 kidney cells; Table 3; 48 h incubation, Alamar Blue; read-out: HEK 293 Kidney Cell Viability CC50
# Description: Evaluating compound effects on kidney cell viability. HEK 293 cells were maintained in MEM medium (Corning Cellgro, 10-009 CV) supplemented with 10% FBS (Sigma, F2242). […] Cell viability was calculated as per vendor instructions (Thermo Fisher—Alamar Blue cell viability assay manual).
compounds and their reported CC50 at 48 h
reported-property: CC50 at 48 h (µM)

[[record]]
compound = "N#CC(c1ccccc1)c1ccc(NC(=O)c2cc(Cl)ccc2O)cc1 (stereo not drawn)"
comparator = "="
endpoint_result = 29

[[record]]
compound = "O=C(Nc1ccc(O)cc1)c1cc(Cl)ccc1O"
comparator = ">"
endpoint_result = 100

[[record]]
compound = "CC(=O)Nc1ccc(NC(=O)c2cc(Cl)ccc2O)cc1"
comparator = "="
endpoint_result = 69

[[record]]
compound = "COc1ccc(Cl)cc1C(=O)Nc1ccc(Oc2ccccc2)c(Cl)c1"
comparator = ">"
endpoint_result = 100

[[record]]
compound = "COc1ccc(Cl)cc1C(=O)Nc1ccc(Sc2nc3ccccc3s2)cc1"
comparator = "="
endpoint_result = 56

[[record]]
compound = "O=C(Nc1ccc(OCc2ccccc2)cc1)c1cc(Cl)ccc1O"
comparator = ">"
endpoint_result = 100


====

# measured-on: native MDH (Sus scrofa, UniProt P00346)
# Construct: soluble pig heart MDH from Roche, product #10127248001; purchased Roche 10127248001; host or cells: pig heart
# Sequence (P00346 25-338): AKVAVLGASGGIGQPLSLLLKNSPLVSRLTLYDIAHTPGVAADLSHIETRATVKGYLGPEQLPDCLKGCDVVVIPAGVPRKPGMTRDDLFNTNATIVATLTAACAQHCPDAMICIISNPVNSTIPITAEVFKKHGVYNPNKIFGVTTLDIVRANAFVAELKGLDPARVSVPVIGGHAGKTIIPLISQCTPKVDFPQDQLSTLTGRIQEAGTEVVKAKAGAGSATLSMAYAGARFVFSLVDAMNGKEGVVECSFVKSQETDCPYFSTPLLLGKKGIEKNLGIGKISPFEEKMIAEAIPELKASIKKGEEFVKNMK
# assay-protocol: Native MDH enzymatic activity counter-screen
# Assay type: biochemical, pig
reported-property: IC50 (µM)

[[record]]
compound = "O=C(Nc1ccc(Oc2ccc(Cl)cc2)c(Cl)c1)c1cc(I)cc(I)c1O [Rafoxanide, reference compound]"
endpoint_result = 17


====

# assay-protocol: HEK 293 kidney cell viability / cytotoxicity assay (Alamar Blue)
# Format: cell-based
# setup-conditions: human, HEK 293 kidney cells; Table 3; 48 h incubation, Alamar Blue; read-out: HEK 293 Kidney Cell Viability CC50
reported-property: CC50 at 48 h

[[record]]
molecule = "COc1ccc(Cl)cc1C(=O)Nc1ccc(CC#N)cc1"
endpoint_result = "> 100 µM"

[[record]]
molecule = "COc1ccc(NC(=O)c2cc(Cl)ccc2O)cc1"
endpoint_result = "19 µM"

[[record]]
molecule = "COC(=O)c1ccc(NC(=O)c2cc(Cl)ccc2OC)cc1"
endpoint_result = "24 µM"

[[record]]
molecule = "O=C(Nc1ccccc1)c1cc(Cl)ccc1O [Compound 117, 5-chloro-2-hydroxy-N-phenylbenzamide]"
endpoint_result = "13 µM"

[[record]]
molecule = "COc1ccc(Cl)cc1C(=O)Nc1ccc(C(=O)O)cc1"
endpoint_result = "> 100 µM"

[[record]]
molecule = "COc1ccc(Cl)cc1C(=O)Nc1ccc(CCc2ccccc2)cc1"
endpoint_result = "> 100 µM"

[[record]]
molecule = "COc1ccc(NC(=O)c2cc(Cl)ccc2OC)cc1"
endpoint_result = "> 100 µM"

[[record]]
molecule = "COc1ccc(Cl)cc1C(=O)Nc1ccc(Oc2ccc(Cl)cc2)c(Cl)c1"
endpoint_result = "> 100 µM"

[[record]]
molecule = "COc1ccc(Cl)cc1C(=O)Nc1ccc(NC(C)=O)cc1"
endpoint_result = "> 100 µM"

[[record]]
molecule = "COc1ccc(Cl)cc1C(=O)Nc1ccc(O)cc1"
endpoint_result = "> 100 µM"

[[record]]
molecule = "COC(=O)c1ccc(NC(=O)c2cc(Cl)ccc2O)cc1"
endpoint_result = "11 µM"

[[record]]
molecule = "O=C(Nc1ccc(Sc2nc3ccccc3s2)c(Cl)c1)c1cc(Cl)ccc1O"
endpoint_result = "83 µM"

[[record]]
molecule = "COc1ccc(Cl)cc1C(=O)Nc1ccc(Sc2nc3ccccc3s2)c(Cl)c1"
endpoint_result = "> 100 µM"

[[record]]
molecule = "COc1ccc(Cl)cc1C(=O)Nc1ccc(Oc2ccc(Cl)cc2)cc1"
endpoint_result = "> 100 µM"

[[record]]
molecule = "COc1ccc(Cl)cc1C(=O)Nc1ccccc1 [Compound 116, 5-chloro-2-methoxy-N-phenylbenzamide]"
endpoint_result = "> 100 µM"

[[record]]
molecule = "COc1ccc(Cl)cc1C(=O)Nc1ccc(Oc2ccccc2)cc1"
endpoint_result = "> 100 µM"

[[record]]
molecule = "O=C(O)c1ccc(NC(=O)c2cc(Cl)ccc2O)cc1"
endpoint_result = "> 100 µM"

[[record]]
molecule = "N#CCc1ccc(NC(=O)c2cc(Cl)ccc2O)cc1"
endpoint_result = "19 µM"

[[record]]
molecule = "O=C(Nc1ccc(Sc2nc3ccccc3s2)cc1)c1cc(Cl)ccc1O"
endpoint_result = "28 µM"

